Would you mind telling me the reported Ki of each entry?
Molecular target: rat α-thrombin (Rattus norvegicus, UniProt P18292)
Construct: rat α-thrombin (Molecular Innovations) were used at final concentrations of 2 nM and 3 nM; purchased Molecular Innovations
Assay: Protease inhibition, Ki for rat α-thrombin (fluorogenic substrate Z-Gly-Gly-Arg-AMC)
Type: biochemical
Settings: purified peptide; mean and s.d. of three measurements; read-out: Ki rat α-thrombin
Numbers only, in nM.

{"columns": ["molecule", "Ki / nM"],
 "data": [
  ["O=C1C[C@H]2CCCN2C(=O)[C@H](Cc2ccccc2)NC(=O)[C@@H](NC(=O)c2ccc(Cl)s2)CCC=CCCCCN1 [peptide 43]", 11.1]
]}

Kindly consider the entry below.
What value of Ki has been reported for the following molecule? O=C1C[C@H]2CCCN2C(=O)[C@H](Cc2ccccc2)NC(=O)[C@@H](NC(=O)c2ccc(Cl)s2)CSC/C=C/CSCCN1 [peptide 32]
1.1

---

Experiment: Peptide stability in simulated intestinal fluid (SIF)
Type: in vitro ADME, porcine
Settings: pig, simulated gi fluid; 8 h, 37 °C, pH 6.8; read-out: Proteolytic stability: SIF (8 h) % remaining
measured_endpoint: remaining at 8 h (%)
One number for each entry, in %.

{"columns": ["compound", "number"],
 "data": [
  ["O=C1C[C@H]2CCCN2C(=O)[C@H](Cc2ccccc2)NC(=O)[C@@H](NC(=O)c2ccc(Cl)cc2)CCC=CCCCCN1 (mixture of isomers) [peptide 46]", 93]
]}

Hi, could you look up remaining at 8 h for each item in my list?
1. CN1CCC(=O)NCCSCCS(=O)(=O)CCSC[C@H](NC(=O)c2ccc(Cl)s2)C(=O)N[C@@H](Cc2ccccc2)C1=O
2. O=C1C[C@H]2CCCN2C(=O)[C@H](Cc2ccccc2)NC(=O)[C@@H](NC(=O)c2ccc(Cl)s2)CCC=CCCCCN1 [peptide 43]

87
91

---

Target: UniProtKB P00734
Experiment: Sub-library screen for active and permeable cyclic peptides (PAMPA plus thrombin inhibition)
Assay type: biochemical
Settings: donor sample diluted to theoretical equilibrium (1 μM in assay); crude; slopes normalized to DMSO
Would you mind telling me the reported Residual thrombin activity: Equilibrated sample of each entry?

{"columns": ["smiles_string", "result"],
 "data": [
  ["O=C1C[C@H]2CCCN2C(=O)[C@H](Cc2ccccc2)NC(=O)[C@@H](NC(=O)c2ccc(Cl)s2)CCSCc2ccccc2CSCCN1", 76.1],
  ["O=C1C[C@H]2CCCN2C(=O)[C@H](Cc2ccc(Cl)cc2)NC(=O)[C@@H](NC(=O)c2ccc(Cl)s2)CSCCS(=O)(=O)CCSCCN1", 98.3],
  ["CN1C(=O)[C@@H](NC(=O)c2ccc(Cl)s2)CSCc2cccc(c2)CSCCNC(=O)C[C@H]2CCCN2C(=O)[C@@H]1Cc1ccccc1", 96.6]
]}

Hi, could you look up Residual thrombin activity: Equilibrated sample for each item in my list?
1. O=C1C[C@H]2CCCN2C(=O)[C@@H](Cc2ccccc2)NC(=O)[C@@H](NC(=O)c2ccc(Cl)s2)CCCSCc2cccc(c2)CSCCN1
2. CN1C(=O)[C@@H](NC(=O)c2ccc(Cl)s2)CCSCc2ccccc2CSCCNC(=O)C[C@H]2CCCN2C(=O)[C@@H]1Cc1ccccc1
3. CN1C(=O)[C@@H](NC(=O)c2ccc(Cl)s2)CCCSCC(=O)CSCCNC(=O)C[C@H]2CCCN2C(=O)[C@@H]1Cc1ccccc1

1. 103.4
2. 95.9
3. 98.1

Hi, could you look up Residual thrombin activity: Equilibrated sample for each item in my list?
1. CN1C(=O)[C@@H](NC(=O)c2ccc(Cl)s2)CCCSCc2ccccc2CSCCNC(=O)C[C@H]2CCCN2C(=O)[C@@H]1Cc1ccccc1
2. O=C1C[C@H]2CCCN2C(=O)[C@H](Cc2ccccc2)NC(=O)[C@@H](NC(=O)c2ccc(Cl)s2)CCCSC/C=C/CSCCN1
3. O=C1C[C@H]2CCCN2C(=O)[C@H](Cc2ccc(Cl)cc2)NC(=O)[C@@H](NC(=O)c2ccc(Cl)s2)CCSCc2cccc(c2)CSCCN1
4. Cc1cccc(C[C@@H]2NC(=O)[C@@H](NC(=O)c3ccc(Cl)s3)CSC/C=C/CSCCNC(=O)C[C@H]3CCCN3C2=O)c1
5. O=C1C[C@H]2CCCN2C(=O)[C@H](Cc2ccc(C(F)(F)F)cc2)NC(=O)[C@@H](NC(=O)c2ccc(Cl)s2)CCCSCCS(=O)(=O)CCSCCN1
6. O=C1C[C@H]2CCCN2C(=O)[C@@H](Cc2ccccc2)NC(=O)[C@@H](NC(=O)c2ccc(Cl)s2)CCSC/C=C/CSCCN1

1. 96.0
2. 36.8
3. 106.4
4. 60.4
5. 99.8
6. 104.3
